Below: a set of entries, each annotated with reported ID50.
- targetOrSystem: Cellular retinoic acid-binding protein 1 (Gallus gallus)
- assay: Concentration of compound required to inhibit binding of 2.5 uM [3H]all-trans-retinoic acid by 50% in chick
// units = µM; emit number, no label

chemSmiles: Cc1c(-c2ccc3c(c2)C(C)(C)CCC3(C)C)ccc2cc(C(=O)O)ccc12
targetOrSystem: Cellular retinoic acid-binding protein 1 (Gallus gallus)
readoutLabel: ID50
experimentalValue: 15
//
chemSmiles: Cc1cc2c(cc1-c1ccc3cc(C(=O)O)ccc3c1)C(C)(C)CCC2(C)C
targetOrSystem: Cellular retinoic acid-binding protein 1 (Gallus gallus)
readoutLabel: ID50
experimentalValue: 4.8
//
chemSmiles: C/C(=C\c1ccc(C(=O)O)cc1)c1ccc2c(c1)C(C)(C)CCC2(C)C
targetOrSystem: Cellular retinoic acid-binding protein 1 (Gallus gallus)
readoutLabel: ID50
experimentalValue: 0.8
//
chemSmiles: CC1(C)CCC(C)(C)c2cc3cc(-c4ccc(C(=O)O)cc4)ccc3cc21
targetOrSystem: Cellular retinoic acid-binding protein 1 (Gallus gallus)
readoutLabel: ID50
experimentalValue: 0.8

Turning to the following molecule.
QUERY: Find the recorded ID50 belonging to `C/C(=C(/C)c1ccc2c(c1)C(C)(C)CCC2(C)C)c1ccc(C(=O)O)cc1` and report it.
RESULT: 1

====

Below: a set of entries, each annotated with reported Transglutaminase activity (% of control).
- Organism: Oryctolagus cuniculus
- assay: Percentage inhibition of Transglutaminase activity in rabbit at 10 nM.
// units = %; emit number, no label

QUERY: Find the recorded Transglutaminase activity (% of control) belonging to `C/C(=C\c1ccc2c(c1)C(C)(C)CCC2(C)C)c1ccc(C(=O)O)cc1` and report it.
RESULT: 5

====

Below: a set of entries, each annotated with reported EC50.
- Tested on: F9
- assay: Ability to displace [3H]all-trans-retinoic acid from F9 embryonal carcinoma cells, was assessed in a F9 laminin release assay
- Type: functional
- conditionSummary: Mus musculus, F9, 96 h; read-out: ED50 (the source's name)

Solved entries (count: 2):
compound: Cc1cc2c(cc1-c1ccc3cc(C(=O)O)ccc3c1)C(C)(C)CCC2(C)C
targetOrSystem: F9
experimentalValue: > 100 nM
--
compound: CC1(C)CCC(C)(C)c2cc(C3C[C@H]3c3ccc(C(=O)O)cc3)ccc21 (some centres undefined)
targetOrSystem: F9
experimentalValue: 90 nM

QUERY: Find the recorded EC50 belonging to `C/C(=C\c1ccc(C(=O)O)cc1)c1ccc2c(c1)C(C)(C)CCC2(C)C` and report it.
RESULT: 1.5 nM

QUERY: Try this compound too: `C/C(=C\c1ccc2c(c1)C(C)(C)CCC2(C)C)c1ccc(C(=O)O)cc1`
RESULT: 1.5 nM

====

- targetOrSystem: Ornithine decarboxylase (Mus musculus) (UniProt P00860)
- Sequence (P00860 whole entry, looked up): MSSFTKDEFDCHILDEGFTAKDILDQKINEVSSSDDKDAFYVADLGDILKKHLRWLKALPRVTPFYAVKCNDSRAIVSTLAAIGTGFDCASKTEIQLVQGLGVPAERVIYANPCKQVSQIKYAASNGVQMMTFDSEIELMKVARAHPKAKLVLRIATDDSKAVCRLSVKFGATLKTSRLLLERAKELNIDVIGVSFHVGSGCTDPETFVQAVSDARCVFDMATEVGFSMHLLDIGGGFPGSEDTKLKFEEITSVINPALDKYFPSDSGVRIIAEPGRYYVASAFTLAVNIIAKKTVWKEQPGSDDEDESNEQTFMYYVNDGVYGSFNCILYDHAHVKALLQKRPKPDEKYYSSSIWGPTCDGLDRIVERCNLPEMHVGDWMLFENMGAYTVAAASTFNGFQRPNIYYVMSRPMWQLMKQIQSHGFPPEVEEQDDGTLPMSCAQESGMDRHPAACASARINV
- assay: Inhibitory effect of compound on the induction of ornithine decarboxylase in CD-1 mouse.
readoutLabel: ID50 (nM)
// units = nM; emit number, no label

molecule: CC1(C)CCC(C)(C)c2cc(C3C[C@H]3c3ccc(C(=O)O)cc3)ccc21 (some centres undefined)
readingUnit: nM
ID50: 3.2

QUERY: Find the recorded ID50 belonging to `C/C(=C\c1ccc2c(c1)C(C)(C)CCC2(C)C)c1ccc(C(=O)O)cc1` and report it.
RESULT: 0.03

QUERY: Try this molecule too: `C/C(=C\c1ccc(C(=O)O)cc1)c1ccc2c(c1)C(C)(C)CCC2(C)C`
RESULT: 0.03

QUERY: Try this molecule too: CC1=C(/C=C/C(C)=C/C=C/C(C)=C/C(=O)O)C(C)(C)CCC1 [TRETINOIN]
RESULT: 0.04

Values were extracted from ChEMBL document CHEMBL1124521.
